Tested on: Mycobacterium tuberculosis
Assay: Antitubercular activity against Mycobacterium tuberculosis H37Rv measured after 1 week by microplate alamar blue assay
Type: functional
Details: 168 h, time 1 weeks
Quantity measured: MIC (µM)
Respond numerically; units are µM and should not be typed.

Here's what some known entries look like.
record_smiles=O=[N+]([O-])c1ccc(-c2nnc(NC(=S)Nc3ccc(Cl)cc3)s2)s1 value_measured=25
record_smiles=NNC(=O)c1ccncc1 value_measured=0.4
record_smiles=COc1ccc(NC(=S)Nc2nnc(-c3ccc([N+](=O)[O-])s3)s2)cc1 value_measured=0.78

What measured MIC is associated with CO[C@H]1/C=C/O[C@@]2(C)Oc3c(C)c(O)c4c(O)c(c(/C=N/N5CCN(C)CC5)c(O)c4c3C2=O)NC(=O)/C(C)=C\C=C\[C@H](C)[C@H](O)[C@@H](C)[C@@H](O)[C@@H](C)[C@H](OC(C)=O)[C@@H]1C on Mycobacterium tuberculosis?
0.5

Now consider CC[C@@H](CO)NCCN[C@@H](CC)CO .
7.63

Now consider COc1ccc(NC(=S)Nc2nnc(-c3ccc([N+](=O)[O-])o3)s2)cc1 .
0.78

Now consider O=[N+]([O-])c1ccc(-c2nnc(NC(=S)Nc3ccc(F)cc3)s2)o1 .
0.78

Now consider CC(=O)c1ccc(S(=O)(=O)Nc2nnc(-c3ccc([N+](=O)[O-])o3)s2)cc1 .
1.56
